assay: LAP4-GFP expression modulators in yeast, confirmation, cell-based, cherry picks, flow cytometry, mother/daughter gates (AID 2271);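 also: ratio of sample to DMSO plate mean so 100% equals DMSO level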; conditions: S. cerevisiae LAP4-GFP strain, 3 h, measured here: mother cell gate response, at 10 µM, stronger effect = higher value, 100 means same as DMSO control
observed.property: GFP response relative to DMSO (%)
Report as a plain number; the unit % is understood.

Before answering, review these 5 worked examples.
[
  {
    "compound": "O=C1CCN(S(=O)(=O)c2ccccc2)C2CCCCC12 (configuration not stated)",
    "GFP response relative to DMSO [%]": 100
  },
  {
    "compound": "Cc1ccc(Sc2ncnc3onc(C)c23)cc1",
    "GFP response relative to DMSO [%]": 117
  },
  {
    "compound": "COC(=O)c1ccc(N2C(=O)CC(SCCN)C2=O)cc1 (configuration not stated)",
    "GFP response relative to DMSO [%]": 100
  },
  {
    "compound": "Cc1nn(Cc2ccc(Cl)cc2)c(=O)n1N(C)c1ncc(C(F)(F)F)cc1Cl",
    "GFP response relative to DMSO [%]": 95.1
  },
  {
    "compound": "COc1ccccc1-c1noc(CCC(=O)Nc2cccc(C)c2)n1",
    "GFP response relative to DMSO [%]": 96.5
  }
]

Identify GFP response relative to DMSO associated with the compound O=C(/C=C/c1ccccc1[N+](=O)[O-])c1ccccc1Br
180

Identify GFP response relative to DMSO associated with the compound CCOc1ccccc1NC1=C(Cl)C(=O)N(Cc2ccccc2)C1=O
97.2
